target-or-system: T1, TGFβ1 (R&D Systems)
T1 construct: also called TGFB1
T1 sequence (P01137 279-390): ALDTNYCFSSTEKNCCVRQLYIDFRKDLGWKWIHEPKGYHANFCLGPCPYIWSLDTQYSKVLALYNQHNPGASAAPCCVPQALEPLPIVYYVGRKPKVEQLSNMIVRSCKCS
test-protocol: single point SPR
pKd: −log10 of the molar value.
test-readout: pKd

>>> result_number("Can-SL501-VH3 Q110E / Can-SL501-VL2 (antibody, V domains shown) VH: EVQLVESGGDLVKPGGSLRLSCVASGFTFSSYGMHWVRQAPGKELEWVAVISYDGSIKYYADAVKGRFTISRDNAKNTLYLQMNSLRAEDTAVYYCARTGEYSGYDTDPEYSWGQGTTVTVSS VL: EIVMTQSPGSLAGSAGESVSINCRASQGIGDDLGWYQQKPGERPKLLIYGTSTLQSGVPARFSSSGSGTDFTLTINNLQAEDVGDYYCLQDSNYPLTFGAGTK")
7.87
>>> result_number("Can-SL501-VH3 S112N / Can-SL501-VL2 (antibody, V domains shown) VH: EVQLVESGGDLVKPGGSLRLSCVASGFTFSSYGMHWVRQAPGKELEWVAVISYDGSIKYYADAVKGRFTISRDNAKNTLYLQMNSLRAEDTAVYYCARTGEYSGYDTDPQYNWGQGTTVTVSS VL: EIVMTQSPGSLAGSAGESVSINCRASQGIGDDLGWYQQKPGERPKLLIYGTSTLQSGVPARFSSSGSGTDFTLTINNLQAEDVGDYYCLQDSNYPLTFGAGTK")
8.47
>>> result_number("Can-SL501-VH3 Q110T / Can-SL501-VL2 (antibody, V domains shown) VH: EVQLVESGGDLVKPGGSLRLSCVASGFTFSSYGMHWVRQAPGKELEWVAVISYDGSIKYYADAVKGRFTISRDNAKNTLYLQMNSLRAEDTAVYYCARTGEYSGYDTDPTYSWGQGTTVTVSS VL: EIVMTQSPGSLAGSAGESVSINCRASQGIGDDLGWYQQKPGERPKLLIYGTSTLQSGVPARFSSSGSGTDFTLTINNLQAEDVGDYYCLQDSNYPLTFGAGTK")
8.25
